Parameter: MIC. Scope: all listed entries.
# System: Staphylococcus aureus
# Protocol: Antimicrobial activity against Staphylococcus aureus […] after 16 to 18 hrs by serial dilution method
# Assay type: functional
The answer is to be given in µg/mL; state only the numeric part.

CSc1ccc(NC(=O)Nc2c(-c3cccc(F)c3)nc3ccccc3c2O)cc1 :: 50
CCCCCNc1nc2c(-c3ccc(F)cc3)nc3ccccc3c2o1 :: 50
Fc1cccc(-c2nc3ccccc3c3oc(NCCc4ccccc4)nc23)c1 :: 50
N#Cc1cccc(NC(=O)Nc2c(-c3cccc(F)c3)nc3ccccc3c2O)c1 :: 6.25
COc1ccccc1Nc1nc2c(-c3cccc(F)c3)nc3ccccc3c2o1 :: 6.25

Lab note: Staphylococcus aureus assay, enter MIC for Cc1cc(C)cc(NC(=O)Nc2c(-c3ccc(F)cc3)nc3ccccc3c2O)c1 here
50

Lab note: Staphylococcus aureus assay, enter MIC for O=C(NCCc1ccccc1)Nc1c(-c2cccc(F)c2)nc2ccccc2c1O here
50

Lab note: Staphylococcus aureus assay, enter MIC for O=C(NCc1ccccc1)Nc1c(-c2cccc(F)c2)nc2ccccc2c1O here
6.25

Lab note: Staphylococcus aureus assay, enter MIC for Fc1ccc(Nc2nc3c(-c4ccc(F)cc4)nc4ccccc4c3o2)cc1 here
6.25

Lab note: Staphylococcus aureus assay, enter MIC for Fc1cccc(-c2nc3ccccc3c3oc(NCc4ccccc4)nc23)c1 here
6.25

Lab note: Staphylococcus aureus assay, enter MIC for COc1ccccc1NC(=O)Nc1c(-c2ccc(F)cc2)nc2ccccc2c1O here
6.25

---

# System: Mycobacterium tuberculosis
# Protocol: Antitubercular activity against Mycobacterium tuberculosis H37Rv after 24 hrs by broth microdilution method
# Type: functional
Assay Endpoint: MIC (µg/mL)
The answer is to be given in µg/mL; state only the numeric part.

Fc1ccc(-c2nc3ccccc3c3oc(Nc4cccc(Cl)c4)nc23)cc1 :: 1

Give the value of MIC reported for the following: Fc1cccc(-c2nc3ccccc3c3oc(Nc4ccccc4)nc23)c1
10

Give the value of MIC reported for the following: Fc1ccc(Nc2nc3c(-c4ccc(F)cc4)nc4ccccc4c3o2)cc1
1

Give the value of MIC reported for the following: COc1ccccc1Nc1nc2c(-c3ccc(F)cc3)nc3ccccc3c2o1
1

Give the value of MIC reported for the following: O=C(Nc1cccc(Cl)c1)Nc1c(-c2ccc(F)cc2)nc2ccccc2c1O
10

Give the value of MIC reported for the following: O=C(Nc1ccccc1)Nc1c(-c2cccc(F)c2)nc2ccccc2c1O
10

---

# System: Pseudomonas aeruginosa
# Protocol: Antimicrobial activity against Pseudomonas aeruginosa ATTC 27853 after 16 to 18 hrs by serial dilution method
# Format: functional
Parameter: MIC. Scope: all listed entries.
The answer is to be given in µg/mL; state only the numeric part.

Worked cases, answers included:
COc1ccccc1NC(=O)Nc1c(-c2ccc(F)cc2)nc2ccccc2c1O :: 6.25
O=C(NCCc1ccccc1)Nc1c(-c2cccc(F)c2)nc2ccccc2c1O :: 50
O=C(Nc1ccc(F)cc1)Nc1c(-c2ccc(F)cc2)nc2ccccc2c1O :: 6.25
Cc1cc(C)cc(NC(=O)Nc2c(-c3ccc(F)cc3)nc3ccccc3c2O)c1 :: 50
O=C(Nc1cccc(Cl)c1)Nc1c(-c2ccc(F)cc2)nc2ccccc2c1O :: 6.25
Fc1cccc(-c2nc3ccccc3c3oc(NCc4ccccc4)nc23)c1 :: 6.25
CSc1ccc(Nc2nc3c(-c4cccc(F)c4)nc4ccccc4c3o2)cc1 :: 6.25
O=C(Nc1ccc(F)cc1)Nc1c(-c2cccc(F)c2)nc2ccccc2c1O :: 6.25
N#Cc1cccc(Nc2nc3c(-c4cccc(F)c4)nc4ccccc4c3o2)c1 :: 12.5

Here is the next item to consider.
Give the value of MIC reported for the following: O=C(NCc1ccccc1)Nc1c(-c2cccc(F)c2)nc2ccccc2c1O
6.25

---

# System: Staphylococcus aureus
# Protocol: Antimicrobial activity against Staphylococcus aureus […] after 16 to 18 hrs by serial dilution method
# Assay type: functional
Parameter: MIC. Scope: all listed entries.

Fc1ccc(Nc2nc3c(-c4cccc(F)c4)nc4ccccc4c3o2)cc1 :: 6.25 µg/mL
Fc1ccc(-c2nc3ccccc3c3oc(NCc4ccccc4)nc23)cc1 :: 6.25 µg/mL
CCCCCNC(=O)Nc1c(-c2ccc(F)cc2)nc2ccccc2c1O :: 50 µg/mL
Fc1ccc(-c2nc3ccccc3c3oc(Nc4cccc(Cl)c4)nc23)cc1 :: 6.25 µg/mL
CCCCCNc1nc2c(-c3cccc(F)c3)nc3ccccc3c2o1 :: 12.5 µg/mL

Give the value of MIC reported for the following: COc1ccccc1Nc1nc2c(-c3ccc(F)cc3)nc3ccccc3c2o1
6.25 µg/mL

---

# Tested on: Pseudomonas aeruginosa
# Protocol: Antimicrobial activity against Pseudomonas aeruginosa ATTC 27853 after 16 to 18 hrs by serial dilution method
# Assay type: functional
Assay Endpoint: MIC (µg/mL)
The answer is to be given in µg/mL; state only the numeric part.

Give the value of MIC reported for the following: Fc1cccc(-c2nc3ccccc3c3oc(NCCc4ccccc4)nc23)c1
50

Give the value of MIC reported for the following: O=C(Nc1ccccc1)Nc1c(-c2cccc(F)c2)nc2ccccc2c1O
6.25

Give the value of MIC reported for the following: COc1ccccc1NC(=O)Nc1c(-c2cccc(F)c2)nc2ccccc2c1O
6.25

Give the value of MIC reported for the following: COc1ccccc1Nc1nc2c(-c3ccc(F)cc3)nc3ccccc3c2o1
6.25

Give the value of MIC reported for the following: Fc1ccc(Nc2nc3c(-c4cccc(F)c4)nc4ccccc4c3o2)cc1
6.25

Give the value of MIC reported for the following: Cc1cc(C)cc(Nc2nc3c(-c4ccc(F)cc4)nc4ccccc4c3o2)c1
12.5

Give the value of MIC reported for the following: CCCCCNc1nc2c(-c3cccc(F)c3)nc3ccccc3c2o1
12.5

---

# Test system: Pseudomonas aeruginosa
# Protocol: Antimicrobial activity against Pseudomonas aeruginosa ATTC 27853 after 16 to 18 hrs by serial dilution method
# Type: functional
Parameter: MIC. Scope: all listed entries.
The answer is to be given in mg/L; state only the numeric part.

CCCCCNc1nc2c(-c3ccc(F)cc3)nc3ccccc3c2o1 :: 50
Fc1ccc(-c2nc3ccccc3c3oc(NCc4ccccc4)nc23)cc1 :: 6.25
Fc1ccc(-c2nc3ccccc3c3oc(Nc4cccc(Cl)c4)nc23)cc1 :: 6.25

Give the value of MIC reported for the following: Fc1ccc(Nc2nc3c(-c4ccc(F)cc4)nc4ccccc4c3o2)cc1
6.25

Give the value of MIC reported for the following: Fc1cccc(-c2nc3ccccc3c3oc(Nc4ccccc4)nc23)c1
6.25

Give the value of MIC reported for the following: COc1ccccc1Nc1nc2c(-c3cccc(F)c3)nc3ccccc3c2o1
6.25

---

# System: Mycobacterium tuberculosis
# Protocol: Antitubercular activity against Mycobacterium tuberculosis H37Rv after 24 hrs by broth microdilution method
# Format: functional
Assay Endpoint: MIC (µg/mL)
The answer is to be given in µg/mL; state only the numeric part.

Worked cases, answers included:
CSc1ccc(Nc2nc3c(-c4cccc(F)c4)nc4ccccc4c3o2)cc1 :: 10
CCCCCNc1nc2c(-c3cccc(F)c3)nc3ccccc3c2o1 :: 10

Give the value of MIC reported for the following: O=C(NCc1ccccc1)Nc1c(-c2cccc(F)c2)nc2ccccc2c1O
10

Give the value of MIC reported for the following: COc1ccccc1Nc1nc2c(-c3cccc(F)c3)nc3ccccc3c2o1
1

Give the value of MIC reported for the following: O=C(Nc1ccc(F)cc1)Nc1c(-c2cccc(F)c2)nc2ccccc2c1O
10

---

Parameter: MIC. Scope: all listed entries.
# System: Staphylococcus aureus
# Protocol: Antimicrobial activity against Staphylococcus aureus […] after 16 to 18 hrs by serial dilution method
# Format: functional
The answer is to be given in µg/mL; state only the numeric part.

Fc1cccc(-c2nc3ccccc3c3oc(Nc4ccccc4)nc23)c1 :: 6.25
Cc1cc(C)cc(Nc2nc3c(-c4ccc(F)cc4)nc4ccccc4c3o2)c1 :: 12.5
O=C(Nc1ccc(F)cc1)Nc1c(-c2ccc(F)cc2)nc2ccccc2c1O :: 6.25

Give the value of MIC reported for the following: O=C(Nc1ccc(F)cc1)Nc1c(-c2cccc(F)c2)nc2ccccc2c1O
6.25

Give the value of MIC reported for the following: COc1ccccc1NC(=O)Nc1c(-c2cccc(F)c2)nc2ccccc2c1O
6.25

Give the value of MIC reported for the following: CSc1ccc(Nc2nc3c(-c4cccc(F)c4)nc4ccccc4c3o2)cc1
6.25

Give the value of MIC reported for the following: O=C(Nc1cccc(Cl)c1)Nc1c(-c2ccc(F)cc2)nc2ccccc2c1O
6.25

Give the value of MIC reported for the following: N#Cc1cccc(Nc2nc3c(-c4cccc(F)c4)nc4ccccc4c3o2)c1
12.5

---

Parameter: MIC. Scope: all listed entries.
# Test system: Pseudomonas aeruginosa
# Protocol: Antimicrobial activity against Pseudomonas aeruginosa ATTC 27853 after 16 to 18 hrs by serial dilution method
# Format: functional
Report the figure along with its unit, number first.

Worked cases, answers included:
CCCCCNC(=O)Nc1c(-c2cccc(F)c2)nc2ccccc2c1O :: 12.5 µg/mL
O=C(NCc1ccccc1)Nc1c(-c2ccc(F)cc2)nc2ccccc2c1O :: 50 µg/mL
CSc1ccc(NC(=O)Nc2c(-c3cccc(F)c3)nc3ccccc3c2O)cc1 :: 50 µg/mL
N#Cc1cccc(NC(=O)Nc2c(-c3cccc(F)c3)nc3ccccc3c2O)c1 :: 6.25 µg/mL

Here is the next item to consider.
Give the value of MIC reported for the following: CCCCCNC(=O)Nc1c(-c2ccc(F)cc2)nc2ccccc2c1O
50 µg/mL
